The reported measurements were obtained from patent US20260297042A1.

Molecular target: Human PKMYT1 (Homo sapiens)
Construct: Human PKMYT1 75-362 was cloned as a TEV cleavable 6xHis fusion; 6xHis (TEV cleavable) (cleaved yes); made in house; host or cells: bacterial cells
Sequence (Q99640 75-362): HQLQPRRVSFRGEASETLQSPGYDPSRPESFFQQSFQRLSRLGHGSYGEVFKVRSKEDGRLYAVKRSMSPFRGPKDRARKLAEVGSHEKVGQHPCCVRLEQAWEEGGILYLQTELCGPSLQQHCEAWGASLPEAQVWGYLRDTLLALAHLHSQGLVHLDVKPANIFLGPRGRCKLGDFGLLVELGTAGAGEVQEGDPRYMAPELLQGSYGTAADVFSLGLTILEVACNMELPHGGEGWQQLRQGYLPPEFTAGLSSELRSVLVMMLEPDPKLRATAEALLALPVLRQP
Test: PKMYT1 biochemical ADP-Glo enzymatic assay
Conditions: ADP-Glo; 15 nM PKMYT1 kinase domain, 500 µM ATP, 60 minutes at 26° C.; banded
pIC50: −log10 of the molar value.
reported endpoint: pIC50

> print(dat)
                                smiles.repr      observed
1  Cc1ccc(O)c(C)c1NC(=O)c1cnc(Nc2ccn(CC(=O)NC(C)(C)CO)n2)s1  6.00 to 7.30
2  Cc1ccc(O)c(C)c1NC(=O)c1cnc(NCCCN2CCS(=O)(=O)CC2)s1  6.00 to 7.30
3  Cc1ccc(O)c(C)c1NC(=O)c1cnc(Nc2cc(C)n(C(C)C)n2)s1        > 7.30
4  Cc1ccc(O)c(C)c1NC(=O)c1cnc(Nc2ccn(CC(=O)NC[C@H](C)O)n2)s1  6.00 to 7.30
5  Cc1ccc(O)c(C)c1NC(=O)c1cnc(Nc2cc(C(F)(F)F)n(C)n2)s1  6.00 to 7.30
6  CCC(=O)NCCCNc1ncc(C(=O)Nc2c(C)ccc(O)c2C)s1  4.96 to 6.00
7  Cc1ccc(O)c(C)c1NC(=O)c1cnc(NC2Cc3ccccc3C2)s1  4.96 to 6.00
8  Cc1ccc(O)c(C)c1NC(=O)c1cnc(Nc2cccc(N3CCC(NC(=O)OC(C)(C)C)CC3)n2)s1  6.00 to 7.30
9  Cc1ccc(O)c(C)c1NC(=O)c1cnc(Nc2ccn(CCNC(=O)OC(C)(C)C)n2)s1  4.96 to 6.00

----------
Biological target: WEE1 (Homo sapiens, UniProt P30291)
Construct: purchased Thermo Fisher PR7373A
Sequence (P30291 whole entry): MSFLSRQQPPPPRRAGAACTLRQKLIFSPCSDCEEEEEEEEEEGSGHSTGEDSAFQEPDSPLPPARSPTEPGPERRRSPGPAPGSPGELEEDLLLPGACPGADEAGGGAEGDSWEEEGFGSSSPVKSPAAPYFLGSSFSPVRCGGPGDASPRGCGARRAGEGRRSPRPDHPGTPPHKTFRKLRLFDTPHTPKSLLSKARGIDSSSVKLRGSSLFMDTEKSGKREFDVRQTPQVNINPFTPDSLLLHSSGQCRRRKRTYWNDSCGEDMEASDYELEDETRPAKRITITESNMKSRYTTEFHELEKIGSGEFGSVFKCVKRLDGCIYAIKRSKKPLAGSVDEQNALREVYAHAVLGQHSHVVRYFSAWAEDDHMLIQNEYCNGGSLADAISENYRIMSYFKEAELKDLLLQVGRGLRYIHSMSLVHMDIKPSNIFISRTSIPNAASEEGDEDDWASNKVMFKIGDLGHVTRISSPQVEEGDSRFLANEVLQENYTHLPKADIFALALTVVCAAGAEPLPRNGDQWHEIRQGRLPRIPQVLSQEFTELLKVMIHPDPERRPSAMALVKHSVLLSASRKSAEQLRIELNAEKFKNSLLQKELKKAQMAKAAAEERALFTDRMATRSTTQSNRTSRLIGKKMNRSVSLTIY
Assay: Selectivity versus WEE1 assay (ADP-Glo enzymatic assay)
Assay type: biochemical
Details: ADP-Glo; 15 nM WEE1, 60 minutes at 26° C.; banded
pIC50: −log10 of the molar value. Counter-ions that a name gives are not always drawn.
Form field: pIC50 (one value per entry).
reported endpoint: pIC50

> print(dat)
                                    compound      observed
 1  Cc1ccc(O)c(C)c1NC(=O)c1cnc(NC2CCN(S(C)(=O)=O)CC2)s1        < 4.96
 2  Cc1ccc(NC(=O)c2ccc(F)cc2)nc1Nc1ncc(C(=O)Nc2c(C)ccc(O)c2C)s1        < 4.96
 3  Cc1ccc(O)c(C)c1NC(=O)c1cnc(NC2Cc3ccccc3C2)s1        < 4.96
 4  Cc1ccc(O)c(C)c1NC(=O)c1cnc(Nc2ccn(CC(=O)OC(C)C)n2)s1        < 4.96
 5  Cc1cn(-c2cccc(F)c2)nc1Nc1ncc(C(=O)Nc2c(C)ccc(O)c2C)s1        < 4.96
 6  CCCn1ccc(Nc2ncc(C(=O)Nc3c(C)ccc(O)c3C)s2)n1        < 4.96
 7  Cc1ccc(O)c(C)c1NC(=O)c1cnc(Nc2cc(C)n(CCC(N)=O)n2)s1  4.96 to 6.00
 8  Cc1ccc(O)c(C)c1NC(=O)c1cnc(Nc2cc(C(F)(F)F)nc(N3CCOCC3)n2)s1        < 4.96
 9  Cc1ccc(O)c(C)c1NC(=O)c1cnc(Nc2ccnc(-c3ccc(F)cc3)c2)s1        < 4.96
10  Cc1ccc(O)c(C)c1NC(=O)c1cnc(Nc2ccn(CC(=O)NCC3CCNCC3)n2)s1        < 4.96
11  Cc1cn(C2CNC2)nc1Nc1ncc(C(=O)Nc2c(C)ccc(O)c2C)s1 [BAA-273, hydrochloride]  6.00 to 7.30
12  Cc1cn(-c2cnn(C)c2)nc1Nc1ncc(C(=O)Nc2c(C)ccc(O)c2C)s1  4.96 to 6.00
13  Cc1ccc(O)c(C)c1NC(=O)c1cnc(Nc2ccn([C@@H]3CCN(Cc4ccccc4)C3)n2)s1        < 4.96
14  Cc1ccc(O)c(C)c1NC(=O)c1cnc(Nc2ccn(CC(=O)N3CCN(CC(F)(F)F)CC3)n2)s1        < 4.96
15  Cc1ccc(O)c(C)c1NC(=O)c1cnc(Nc2cc(C)n(C3CCCC3)n2)s1  4.96 to 6.00
16  Cc1nc(CNc2ncc(C(=O)Nc3c(C)ccc(O)c3C)s2)no1        < 4.96
17  Cc1ccc(O)c(C)c1NC(=O)c1cnc(Nc2ccn([C@@H]3CCN(C(=O)Cn4cccn4)C3)n2)s1        < 4.96
18  Cc1ccc(NC(=O)OC(C)(C)C)nc1Nc1ncc(C(=O)Nc2c(C)ccc(O)c2C)s1        < 4.96
19  CNC(=O)c1cc(Nc2ncc(C(=O)Nc3c(C)ccc(O)c3C)s2)nn1C        < 4.96
20  Cc1cn(C2CCC2)nc1Nc1ncc(C(=O)Nc2c(C)ccc(O)c2C)s1  4.96 to 6.00
21  Cc1ccc(O)c(C)c1NC(=O)c1cnc(Nc2ccn(CC(=O)NCCN3CCOCC3)n2)s1        < 4.96
22  Cc1ccc(O)c(C)c1NC(=O)c1cnc(Nc2cc(C(=O)O)nn2C)s1        < 4.96
23  Cc1ccc(O)c(C)c1NC(=O)c1cnc(Nc2ccc(N3CCC(F)(F)CC3)cn2)s1        < 4.96
24  Cc1ccc(O)c(C)c1NC(=O)c1cnc(Nc2ccn(CC(=O)NC[C@@H](C)O)n2)s1        < 4.96
25  Cc1ccc(O)c(C)c1NC(=O)c1cnc(Nc2ccn([C@@H]3CCN(C(=O)CC4CCCCC4)C3)n2)s1        < 4.96
26  Cc1ccc(O)c(C)c1NC(=O)c1cnc(Nc2ccn([C@@H]3CCNC3)n2)s1 [BAA-056, hydrochloride]        < 4.96
27  Cc1ccc(O)c(C)c1NC(=O)c1cnc(Nc2nn(C)c3c2CCC3)s1        < 4.96
28    Cc1ccc(O)c(C)c1NC(=O)c1cnc(Nc2ccon2)s1        < 4.96
29  Cc1ccc(O)c(C)c1NC(=O)c1cnc(Nc2cc[nH]n2)s1        < 4.96
30  Cc1ccc(O)c(C)c1NC(=O)c1cnc(Nc2nc3ccccc3o2)s1        < 4.96
31       COCCNc1ncc(C(=O)Nc2c(C)ccc(O)c2C)s1        < 4.96
32  Cc1cc(Nc2ncc(C(=O)Nc3c(C)ccc(O)c3C)s2)n(CC(C)C)n1        < 4.96
33  Cc1cccc(CNc2ncc(C(=O)Nc3c(C)ccc(O)c3C)s2)c1O        < 4.96
34  Cc1ccc(O)c(C)c1NC(=O)c1cnc(Nc2ccn(CC(=O)N3CC4(C3)CN(C(=O)OC(C)(C)C)C4)n2)s1  4.96 to 6.00
35  Cc1ccc(O)c(C)c1NC(=O)c1cnc(Nc2ccn(CC(=O)N3CCNC(=O)C3)n2)s1        < 4.96
